Numbers sourced from ChEMBL document CHEMBL4811318.

- studySystem: UniProtKB P18031
- Sequence (P18031 whole entry): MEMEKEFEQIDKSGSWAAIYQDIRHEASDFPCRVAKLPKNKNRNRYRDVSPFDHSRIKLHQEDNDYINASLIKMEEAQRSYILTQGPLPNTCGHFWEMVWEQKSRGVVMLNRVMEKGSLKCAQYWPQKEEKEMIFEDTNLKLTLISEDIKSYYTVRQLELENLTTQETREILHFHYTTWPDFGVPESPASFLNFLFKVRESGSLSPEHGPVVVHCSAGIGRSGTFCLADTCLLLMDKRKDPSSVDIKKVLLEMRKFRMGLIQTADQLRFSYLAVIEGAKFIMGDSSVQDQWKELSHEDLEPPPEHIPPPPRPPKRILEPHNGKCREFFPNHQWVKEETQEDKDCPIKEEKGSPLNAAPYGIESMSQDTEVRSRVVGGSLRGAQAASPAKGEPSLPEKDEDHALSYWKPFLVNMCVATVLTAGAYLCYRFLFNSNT
- assayComment: Inhibition of PTP1B (unknown origin)
Each record here notes measured IC50.
Just the number in nM, nothing appended.

{"moleculeSmiles": "C=C(C)[C@@H]1CC[C@]2(C(=O)O)CC[C@]3(C)[C@H](CC[C@@H]4[C@@]5(C)CC[C@H](O)C(C)(C)[C@@H]5CC[C@]43C)[C@@H]12", "IC50 [nM]": 1500}
{"moleculeSmiles": "c1ccc(Cc2nc3ccccc3n3cccc23)cc1", "IC50 [nM]": 240}

Kindly consider the entry below.
Specify reported IC50 for the compound shown: CCCCCCS(=O)(=O)NC(=O)c1ccc(CSCc2ccc(-c3ccccc3)cc2)cc1
250
